B1: TPR 5TU (parent)
chain: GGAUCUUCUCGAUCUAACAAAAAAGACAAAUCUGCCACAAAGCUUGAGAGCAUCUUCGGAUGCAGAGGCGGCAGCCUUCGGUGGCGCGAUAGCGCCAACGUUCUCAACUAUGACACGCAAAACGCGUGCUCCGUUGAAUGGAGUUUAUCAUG

Variants of: B1
Measurement protocol: polymerase ribozyme fitness, log enrichment relative to wild type (log ratio); higher = more active; in vitro selection for triplet polymerase activity
Variants at the floor of the assay were thinned out.
Mark FALSE for polymerase ribozyme fitness (log ratio) values under -3, and TRUE for everything at or above.

Would you please look over these solved cases?
# check: polymerase ribozyme fitness (log ratio) of C5U C38G A66U G94C is greater than or equal to -3
FALSE

Identify whether the reported polymerase ribozyme fitness (log ratio) of the following variant is -3 or greater: A17G A20U A37G U53G A98U A106U G126C G136C G143U
FALSE

hey, is polymerase ribozyme fitness (log ratio) for this one >= -3? U4C C5A A24U A41G G46C C85U C96G
FALSE

Next:
Record C76A C87U ; criterion: polymerase ribozyme fitness (log ratio) no lower than -3. Met?
TRUE

API: above_or_equal(metric=polymerase ribozyme fitness (log ratio), cutoff=-3) for item A52G A64U U101G A107C C125G
FALSE

Given the entry C32U A52C U55G C57A , answer whether its polymerase ribozyme fitness (log ratio) meets or surpasses -3.
FALSE

In plain terms: is recorded polymerase ribozyme fitness (log ratio) at least -3 for A113U G117U ?
TRUE

For this variant, is measured polymerase ribozyme fitness (log ratio) -3 or higher? A47G C57U U109G
TRUE

Given A3C U6G A22C A29C C85G C93U C108G G143A , state whether its polymerase ribozyme fitness (log ratio) is at least -3.
FALSE

Form field: polymerase ribozyme fitness (log ratio) at least -3? Entry: A3U C57U C87U A113C A119G
FALSE

API: above_or_equal(metric=polymerase ribozyme fitness (log ratio), cutoff=-3) for item A26U U56A C93U
FALSE

For this variant, is measured polymerase ribozyme fitness (log ratio) -3 or higher? C5G A20G C75U C87U A119G A142G
FALSE

Hello, I need to know if G34C C75A G94A C108G U130A has measured polymerase ribozyme fitness (log ratio) not below -3. Thanks!
FALSE

Tell me whether polymerase ribozyme fitness (log ratio) is at least -3 here: U9A C10G G48U C63G C85A A137G G141U
FALSE

Quick check, polymerase ribozyme fitness (log ratio) >= -3? G88U G124A G128U U135C
FALSE

Dear colleague, could you confirm whether A37C A40C G58U G94A A97U G143C has polymerase ribozyme fitness (log ratio) at or above -3?
FALSE

Textbook exercise: given the entry A3C U61A G84A G92A A120C , state whether its polymerase ribozyme fitness (log ratio) is greater than or equal to -3.
FALSE
